target: Human erythrocyte 20S proteasome (Homo sapiens)
Each record is given True if its reported IC50 is strictly below 100 nM. Records at or above 100 nM are given False.

Take a look at these entries with their results.
Prompt: For this molecule, is IC50 lower than 100 nM? `CC(C)C[C@H](NC(=O)[C@@H]1N[C@H](c2ccccc2)[C@@H]([N+](=O)[O-])[C@@H]1c1ccc([N+](=O)[O-])cc1)B(O)O`
Response: False

Prompt: For this molecule, is IC50 lower than 100 nM? `CC(C)C[C@H](NC(=O)[C@@H]1N[C@H](c2ccccc2)[C@@H]([N+](=O)[O-])[C@@H]1c1ccc(F)cc1)B(O)O`
Response: True

Prompt: For this molecule, is IC50 lower than 100 nM? `CC(C)C[C@H](NC(=O)[C@@H]1N[C@H](c2ccccc2)[C@@H]([N+](=O)[O-])[C@@H]1c1ccc2ccccc2c1)B(O)O`
Response: False

Prompt: For this molecule, is IC50 lower than 100 nM? `CC(C)C[C@H](NC(=O)[C@@H]1N[C@H](c2ccccc2)[C@@H]([N+](=O)[O-])[C@@H]1c1cccs1)B(O)O`
Response: True

Prompt: For this molecule, is IC50 lower than 100 nM? `CC(C)C[C@H](NC(=O)[C@H]1N[C@@H](c2ccccc2)[C@H]([N+](=O)[O-])[C@H]1c1ccccc1)B(O)O`
Response: False

Prompt: For this molecule, is IC50 lower than 100 nM? `CC(C)C[C@H](NC(=O)[C@H]1N[C@@H](c2ccccc2)[C@H]2C(=O)N(C)C(=O)[C@H]21)B(O)O`
Response: False

# next molecule below
Prompt: For this molecule, is IC50 lower than 100 nM? `CC(C)C[C@H](NC(=O)[C@@H]1N[C@H](c2ccccc2)[C@@H]2C(=O)N(C)C(=O)[C@@H]21)B(O)O`
Response: True

Sourced from patent EP2910557A1
